System: PANC-1
Assay comment: Cytotoxicity against human PANC1 cells after 48 hrs by SRB assay
Assay type: functional
Cond: PANC-1, 48 h, read-out: LC50 (the source's name)
Metric: CC50 (nM)
// note: answer is a bare numeric in nM

Examples from the recorded data:
C/C=C1\NC(=O)[C@H](Cc2ccccc2)NC(=O)[C@@H](C(C)C)NC(=O)[C@@H]([C@H](C)CC)NC(=O)[C@H](NC(=O)[C@H](NC(=O)[C@H](CCCN)NC(=O)[C@H]2CCCN2C(=O)[C@H](NC(=O)[C@H](CCC(=O)O)NC(=O)[C@@H](NC(=O)[C@H](NC(=O)CCCC(C)C)C(C)C)[C@@H](C)O)C(C)C)[C@H](C)CC)[C@H](C)OC(=O)[C@H](C(C)C)NC1=O    2270
C/C=C1\NC(=O)[C@H](Cc2ccccc2)NC(=O)[C@@H](C(C)C)NC(=O)[C@@H]([C@H](C)CC)NC(=O)[C@H](NC(=O)[C@H](NC(=O)[C@H](CCCN)NC(=O)[C@H]2CCCN2C(=O)[C@H](NC(=O)[C@@H](NC(=O)[C@@H](NC(=O)[C@H](NC(=O)CCCCC(C)(F)F)C(C)C)[C@@H](C)O)C(C)C)C(C)C)[C@H](C)CC)[C@H](C)OC(=O)[C@H](C(C)C)NC1=O    1690

Could you now look at the following compound, please?
CC50 reading for C/C=C1\NC(=O)[C@H](Cc2ccccc2)NC(=O)[C@@H](C(C)C)NC(=O)[C@@H]([C@H](C)CC)NC(=O)[C@H](NC(=O)[C@H](NC(=O)[C@H](CCCN)NC(=O)[C@H]2CCCN2C(=O)[C@H](NC(=O)[C@@H](NC(=O)[C@@H](NC(=O)[C@H](NC(=O)CCCC(C)C)C(C)C)[C@@H](C)O)[C@@H](C)O)C(C)C)[C@H](C)CC)[C@H](C)OC(=O)[C@H](C(C)C)NC1=O : 2320
